Please go through the items and note down their TGI.
Tested on: ACHN renal
Test: NCI tumour cell line growth inhibition, 48 h

Record Cc1ccc(CN2CCC(C(=O)Nc3ccc(-c4cc5ccccc5[nH]4)cc3)CC2)o1 ; system ACHN renal; TGI = > 100 µM

Record C#CCNC(CS)C(=O)O (stereo unspecified) ; system ACHN renal; TGI = > 100 µM

Record NC(N)=N/N=C/c1c(-c2ccc(N)cc2)nc2sccn12 ; system ACHN renal; TGI = 77.9 µM

Record O=C(CCc1nc(=S)[nH][nH]1)Nc1cc(Cl)c(Cl)cc1Cl ; system ACHN renal; TGI = > 100 µM

Record O=C(O)CCNCCCNCCC(=O)O ; system ACHN renal; TGI = > 100 µM

Record COC1/C=C/OC2(C)Oc3c(C)c(O)c4c(O)c(c(/C=N/Nc5ccc([N+](=O)[O-])cc5[N+](=O)[O-])c(O)c4c3C2=O)NC(=O)C(C)=C/C=C/C(C)C(O)C(C)C(O)C(C)C(OC(C)=O)C1C (stereo unspecified) ; system ACHN renal; TGI = 11.4 µM

---

Please go through the items and note down their GI50.
Test system: LOX IMVI melanoma
Assay: NCI tumour cell line growth inhibition, 48 h

// recorded GI50 for CN(C)c1ccc(/C=C\C2=[N+](C)c3ccccc3C2(C)C)cc1 : 0.356 µM

// recorded GI50 for CCC[CH2][Sn]([CH2]CCC)([S]c1cccc2cccnc12)[S]c1cccc2cccnc12 : 0.175 µM

// recorded GI50 for Nc1ccccc1C#C/C=C\C#Cc1ccccc1OC(F)(F)F : 7.85 µM

// recorded GI50 for C=CC(=O)Nc1cc(Nc2ncc(C(=O)OC(C)C)c(-c3cn(C)c4ccccc34)n2)c(OC)cc1N(C)CCN(C)C : 1.76 µM

// recorded GI50 for CCN1/C(=C\c2cc[n+](CC)c3ccccc23)C=Cc2ccccc21 : 0.179 µM

// recorded GI50 for Cc1ccc(NC(=O)Nc2ccc(-c3cccnc3)cc2N2CCC(CO)CC2)cc1 : 3.6 µM

// recorded GI50 for Cn1cc(C2=C(c3c4n(c5ccccc35)CCCCC4)C(=O)NC2=O)c2ccccc21 : 9.4 µM

// recorded GI50 for CC(=O)OC1OC([C@@H]2c3cccc(O)c3C(=O)c3c(O)cc(C)cc32)C(O)C(O)C1O (some centres undefined) : < 0.0141 µM

// recorded GI50 for CCC(=O)[C@H](C)[C@@H](OC(=O)[C@H](C)CC)[C@H](C)[C@H]1OC(CC)=C(C)C(=O)[C@@H]1C : 16.9 µM

---

Tested on: OVCAR-5 ovarian
Experiment: NCI tumour cell line growth inhibition, 48 h
*1 amine or outer side, *2 acyl side, *3 side chain or, on linkers, in order; H or OH if unused. Where a SMILES comes first, the peptide text is derived from it. Bridges are numbered along the chain shown (N, C = ends). [ ]: non-standard residue; d: D form. The star is where a group is joined. Phe(3,5-F2) = N[C@@H](Cc1cc(F)cc(F)c1)C(=O)O; Pro(4R-Me) = C[C@H]1CN[C@H](C(=O)O)C1; aThr = C[C@H](O)[C@H](N)C(=O)O; Pip = O=C(O)[C@@H]1CCCCN1; X10 = Fc1cc(C2CC2)ccc1N*; CO = O=C([*:1])[*:2]
measured_property: TGI

Record COc1cccc(C2c3cc4c(cc3OC(C)(N3CCCC3)C2C)OCO4)c1O (configuration not stated) ; system OVCAR-5 ovarian; TGI = 77.3 µM

Record COc1ccc2c(c1)sc1nc(-c3ccccc3)c(-c3cccc4ccccc34)n12 ; system OVCAR-5 ovarian; TGI = > 100 µM

Record CCC(=O)[C@H](C)[C@@H](OC(=O)[C@H](C)CC)[C@H](C)[C@H]1OC(CC)=C(C)C(=O)[C@@H]1C ; system OVCAR-5 ovarian; TGI = 48 µM

Record CC1(C)C(=O)/C=C\C(=O)C(C)(C)C2=CC=C(O2)C(C)(C)C(=O)/C=C\C(=O)C(C)(C)C2=CC=C1O2 ; system OVCAR-5 ovarian; TGI = > 100 µM

Record C=C(C)C(=O)OC1C/C(CO)=C\C(O)C/C(C)=C/C2OC(=O)C(=C)C21 (configuration not stated) ; system OVCAR-5 ovarian; TGI = > 100 µM

Record CCOC(=O)c1cn2c(n1)sc1cccc(C)c12 ; system OVCAR-5 ovarian; TGI = > 100 µM

Record Cc1nc2c(ccc3ncccc32)[nH]1 ; system OVCAR-5 ovarian; TGI = > 100 µM

Record CC(C)=CCc1c2c(c3occ(-c4ccc(O)cc4)c(=O)c3c1O)CC(C(C)(C)O)O2 (configuration not stated) ; system OVCAR-5 ovarian; TGI = 33.8 µM

Record c1ccc(N=c2sc3ccccc3nc2Nc2ccccc2)cc1 ; system OVCAR-5 ovarian; TGI = > 100 µM

Record CCN(CC)CCSc1c2ccccc2nc2cc(NCC(=O)Nc3ccccc3-c3ccccc3NC(=O)CNc3ccc4c(SCCN(CC)CC)c5ccccc5nc4c3)ccc12 ; system OVCAR-5 ovarian; TGI = > 100 µM

Record NC(=O)NO.O.O.O.O.O.O.O.O.O.O.O.[Ge].[Ge].[Ge].[Ge].[Ge].[O]=[Ge].[O]=[Ge].[O]=[Ge].[O]=[Ge].[O]=[Ge][OH] ; system OVCAR-5 ovarian; TGI = > 100 µM

Record O=C(N/N=C(/COc1ccc(Cl)cc1)N=Cc1ccncc1)c1ccncc1 ; system OVCAR-5 ovarian; TGI = > 100 µM

Record OCc1cc2ccccc2c2c3c(ccc12)OCO3 ; system OVCAR-5 ovarian; TGI = 207 µM

Record C=CCO[C@H]1CO[C@H]2[C@@H]1OC[C@@H]2Oc1ccc(Nc2ccnc(Nc3ccc(O[C@H]4CO[C@H]5[C@@H]4OC[C@@H]5OCC=C)c(Cl)c3)n2)cc1Cl ; system OVCAR-5 ovarian; TGI = 3.29 µM

Record COc1ccc(N/N=C2\CCOc3ccc(C)cc3C2=O)cc1 ; system OVCAR-5 ovarian; TGI = > 100 µM

Record C[C@@H]1C[C@H]2C(=O)O[C@@H](C)[C@H](NC(=O)[C@H](Cc3cc(F)cc(F)c3)NC(=O)Nc3ccc(C4CC4)cc3F)C(=O)N3CCC[C@H]3C(=O)N3CCCC[C@H]3C(=O)N[C@@H](C)C(=O)N2C1 ({X10-CO}-[Phe(3,5-F2)][aThr]P[Pip]A[Pro(4R-Me)]; ester 2-C) ; system OVCAR-5 ovarian; TGI = 3.39 µM

Record CCOC(=O)c1csc(NC(=O)CN2CCOCC2)n1 ; system OVCAR-5 ovarian; TGI = > 100 µM
